Origin of the recorded values: paper PMC7522982

target: PLK4 (Homo sapiens, UniProt O00444)
pIC50: −log10 of the molar value.
assay readout: pIC50

>>> df
                                   compound  number
0  COc1ccc2[nH]c3c4[nH]c5ccc(OC)cc5c4c4c(c3c2c1)C(=O)NC4=O [GW296115]    7.77

---

Molecular target: UniProtKB Q8TDC3
Sequence (Q8TDC3 1-778): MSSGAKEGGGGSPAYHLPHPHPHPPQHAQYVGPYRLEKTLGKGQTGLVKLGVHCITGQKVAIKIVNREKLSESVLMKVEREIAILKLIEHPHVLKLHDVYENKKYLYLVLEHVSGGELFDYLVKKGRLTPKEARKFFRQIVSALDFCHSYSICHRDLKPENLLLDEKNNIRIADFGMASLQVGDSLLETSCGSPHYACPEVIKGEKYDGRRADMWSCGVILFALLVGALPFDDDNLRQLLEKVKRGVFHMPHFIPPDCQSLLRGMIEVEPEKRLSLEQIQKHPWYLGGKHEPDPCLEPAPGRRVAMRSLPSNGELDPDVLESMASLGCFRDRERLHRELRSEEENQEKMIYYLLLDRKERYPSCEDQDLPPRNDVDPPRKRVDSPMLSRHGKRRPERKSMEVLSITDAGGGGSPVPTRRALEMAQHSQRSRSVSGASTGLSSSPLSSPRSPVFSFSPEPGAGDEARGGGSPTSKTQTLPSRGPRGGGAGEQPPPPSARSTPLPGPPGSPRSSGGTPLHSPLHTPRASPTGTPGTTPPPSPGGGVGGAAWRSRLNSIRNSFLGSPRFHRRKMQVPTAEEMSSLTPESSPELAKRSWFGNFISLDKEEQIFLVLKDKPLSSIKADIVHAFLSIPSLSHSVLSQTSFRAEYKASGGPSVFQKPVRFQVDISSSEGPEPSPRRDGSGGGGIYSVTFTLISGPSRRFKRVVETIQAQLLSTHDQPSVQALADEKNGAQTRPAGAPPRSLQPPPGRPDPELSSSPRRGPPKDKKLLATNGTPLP
pIC50: −log10 of the molar value.
assay readout: pIC50

>>> print(df.to_string())
                                   compound  number
0  COc1ccc2[nH]c3c4[nH]c5ccc(OC)cc5c4c4c(c3c2c1)C(=O)NC4=O    7.68

---

target: DMPK (Homo sapiens, UniProt Q09013)
Sequence (Q09013 whole entry): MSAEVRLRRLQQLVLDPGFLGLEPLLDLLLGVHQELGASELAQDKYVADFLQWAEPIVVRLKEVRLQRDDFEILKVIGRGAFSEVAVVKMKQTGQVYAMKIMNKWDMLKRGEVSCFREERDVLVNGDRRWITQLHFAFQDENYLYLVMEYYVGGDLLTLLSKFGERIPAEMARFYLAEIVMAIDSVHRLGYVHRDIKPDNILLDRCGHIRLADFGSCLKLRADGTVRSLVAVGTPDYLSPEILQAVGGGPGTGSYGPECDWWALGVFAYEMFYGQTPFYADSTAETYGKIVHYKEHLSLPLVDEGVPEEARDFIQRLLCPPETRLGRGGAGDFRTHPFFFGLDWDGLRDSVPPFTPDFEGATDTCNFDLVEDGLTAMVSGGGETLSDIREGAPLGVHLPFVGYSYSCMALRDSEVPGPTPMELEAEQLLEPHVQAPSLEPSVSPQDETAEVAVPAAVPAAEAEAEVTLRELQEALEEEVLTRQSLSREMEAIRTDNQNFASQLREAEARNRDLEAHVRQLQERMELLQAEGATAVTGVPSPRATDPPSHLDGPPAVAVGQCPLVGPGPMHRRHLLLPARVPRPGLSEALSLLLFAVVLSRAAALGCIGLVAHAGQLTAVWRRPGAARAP
assay readout: IC50

>>> print(df.to_string())
                                   compound   result
0  COc1ccc2[nH]c3c4[nH]c5ccc(OC)cc5c4c4c(c3c2c1)C(=O)NC4=O  > 10 µM

---

biological target: LRRK2 (Homo sapiens, UniProt Q5S007); experiment: Eurofins kinase enzymatic radiometric assay; format: biochemical; parameters: purchased Eurofins; details: Km of ATP, 9-point curve in duplicate
pIC50: −log10 of the molar value.
assay readout: pIC50

In [3]: df
Out[3]:
                                   compound  assay_readout  number
0  COc1ccc2[nH]c3c4[nH]c5ccc(OC)cc5c4c4c(c3c2c1)C(=O)NC4=O          pIC50    7.60

---

biological target: DCLK3/DCAMKL3 (Homo sapiens); assay: Eurofins kinase enzymatic radiometric assay; settings: Km of ATP, 9-point curve in duplicate
assay readout: IC50 (nM)

>>> df
                                   compound  assay_readout  reading_unit  number
0  COc1ccc2[nH]c3c4[nH]c5ccc(OC)cc5c4c4c(c3c2c1)C(=O)NC4=O           IC50            nM      89

---

Molecular target: STK17A/DRAK1 (Homo sapiens)
Experiment: Eurofins kinase enzymatic radiometric assay
Conditions: Km of ATP, 9-point curve in duplicate
Text: Due to our interest in the activity of GW296115 on several understudied IDG kinases, we collected full dose–response curves for all wild type kinases inhibited ≥ 75% in the DiscoverX panel that were offered by Eurofins. Having data in orthogonal formats is a powerful way to confirm inhibitory activity and adds rigor to our results. […]
assay readout: IC50 (nM)

>>> df
                                   compound  reading_unit  number
0  COc1ccc2[nH]c3c4[nH]c5ccc(OC)cc5c4c4c(c3c2c1)C(=O)NC4=O            nM      28

---

target: PDGFRB (Homo sapiens); test: Eurofins kinase enzymatic radiometric assay; type: biochemical; design: purchased Eurofins; settings: Km of ATP, 9-point curve in duplicate
pIC50: −log10 of the molar value.
assay readout: pIC50

                                   compound  result
0  COc1ccc2[nH]c3c4[nH]c5ccc(OC)cc5c4c4c(c3c2c1)C(=O)NC4=O  < 5.00

---

Biological target: MAP3K9/MLK1 (Homo sapiens)
Sequence (P80192 whole entry): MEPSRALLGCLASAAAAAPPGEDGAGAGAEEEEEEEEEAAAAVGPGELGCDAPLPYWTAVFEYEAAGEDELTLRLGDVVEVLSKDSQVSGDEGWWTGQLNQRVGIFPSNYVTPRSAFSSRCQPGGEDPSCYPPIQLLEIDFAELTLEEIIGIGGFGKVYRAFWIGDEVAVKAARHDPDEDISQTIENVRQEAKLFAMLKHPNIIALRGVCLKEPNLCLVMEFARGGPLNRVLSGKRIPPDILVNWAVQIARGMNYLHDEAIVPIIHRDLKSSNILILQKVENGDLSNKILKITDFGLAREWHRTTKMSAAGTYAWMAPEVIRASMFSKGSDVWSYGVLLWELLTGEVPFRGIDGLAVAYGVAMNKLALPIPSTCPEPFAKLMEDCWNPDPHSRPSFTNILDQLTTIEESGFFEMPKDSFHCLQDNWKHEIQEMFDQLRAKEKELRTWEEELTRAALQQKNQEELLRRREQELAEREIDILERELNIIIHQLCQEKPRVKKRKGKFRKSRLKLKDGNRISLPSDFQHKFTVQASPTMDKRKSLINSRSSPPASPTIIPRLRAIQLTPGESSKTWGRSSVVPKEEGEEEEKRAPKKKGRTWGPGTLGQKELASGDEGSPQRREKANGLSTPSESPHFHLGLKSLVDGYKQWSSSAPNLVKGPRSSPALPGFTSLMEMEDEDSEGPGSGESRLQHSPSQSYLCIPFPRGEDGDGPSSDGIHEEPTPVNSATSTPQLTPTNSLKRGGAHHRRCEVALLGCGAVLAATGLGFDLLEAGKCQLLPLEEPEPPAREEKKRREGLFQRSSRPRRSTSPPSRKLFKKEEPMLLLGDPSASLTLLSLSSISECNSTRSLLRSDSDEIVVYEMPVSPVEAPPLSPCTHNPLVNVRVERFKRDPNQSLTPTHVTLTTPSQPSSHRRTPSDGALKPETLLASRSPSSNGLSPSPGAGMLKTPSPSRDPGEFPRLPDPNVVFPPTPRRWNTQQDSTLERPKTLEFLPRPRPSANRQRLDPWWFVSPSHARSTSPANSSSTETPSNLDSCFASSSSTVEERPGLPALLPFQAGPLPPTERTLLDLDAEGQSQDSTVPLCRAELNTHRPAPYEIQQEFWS
Assay: Eurofins kinase enzymatic radiometric assay
Details: Km of ATP, 9-point curve in duplicate
Text: Due to our interest in the activity of GW296115 on several understudied IDG kinases, we collected full dose–response curves for all wild type kinases inhibited ≥ 75% in the DiscoverX panel that were offered by Eurofins. Having data in orthogonal formats is a powerful way to confirm inhibitory activity and adds rigor to our results. […]
assay readout: IC50 (nM)

>>> df
                                   compound  number
0  COc1ccc2[nH]c3c4[nH]c5ccc(OC)cc5c4c4c(c3c2c1)C(=O)NC4=O      26

---

target: UniProt Q16816
Sequence (Q16816 whole entry): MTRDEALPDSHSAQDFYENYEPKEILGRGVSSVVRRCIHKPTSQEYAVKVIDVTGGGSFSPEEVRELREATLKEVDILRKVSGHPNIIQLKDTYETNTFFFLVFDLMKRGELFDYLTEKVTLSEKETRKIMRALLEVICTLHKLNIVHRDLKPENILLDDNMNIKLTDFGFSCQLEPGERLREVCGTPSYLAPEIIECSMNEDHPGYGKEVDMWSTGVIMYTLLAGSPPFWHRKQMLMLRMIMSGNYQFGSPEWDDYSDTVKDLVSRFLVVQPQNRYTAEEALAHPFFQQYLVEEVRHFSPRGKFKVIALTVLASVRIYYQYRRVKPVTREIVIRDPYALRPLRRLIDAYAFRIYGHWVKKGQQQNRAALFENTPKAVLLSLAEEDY
pIC50: −log10 of the molar value.
assay readout: pIC50

>>> df
                                   compound    assay_target  number
0  COc1ccc2[nH]c3c4[nH]c5ccc(OC)cc5c4c4c(c3c2c1)C(=O)NC4=O  UniProt Q16816    7.70

---

molecular target: RPS6KA3/RSK2 (Homo sapiens); assay: Eurofins kinase enzymatic radiometric assay; conditions: Km of ATP, 9-point curve in duplicate
Sequence (P51812 whole entry): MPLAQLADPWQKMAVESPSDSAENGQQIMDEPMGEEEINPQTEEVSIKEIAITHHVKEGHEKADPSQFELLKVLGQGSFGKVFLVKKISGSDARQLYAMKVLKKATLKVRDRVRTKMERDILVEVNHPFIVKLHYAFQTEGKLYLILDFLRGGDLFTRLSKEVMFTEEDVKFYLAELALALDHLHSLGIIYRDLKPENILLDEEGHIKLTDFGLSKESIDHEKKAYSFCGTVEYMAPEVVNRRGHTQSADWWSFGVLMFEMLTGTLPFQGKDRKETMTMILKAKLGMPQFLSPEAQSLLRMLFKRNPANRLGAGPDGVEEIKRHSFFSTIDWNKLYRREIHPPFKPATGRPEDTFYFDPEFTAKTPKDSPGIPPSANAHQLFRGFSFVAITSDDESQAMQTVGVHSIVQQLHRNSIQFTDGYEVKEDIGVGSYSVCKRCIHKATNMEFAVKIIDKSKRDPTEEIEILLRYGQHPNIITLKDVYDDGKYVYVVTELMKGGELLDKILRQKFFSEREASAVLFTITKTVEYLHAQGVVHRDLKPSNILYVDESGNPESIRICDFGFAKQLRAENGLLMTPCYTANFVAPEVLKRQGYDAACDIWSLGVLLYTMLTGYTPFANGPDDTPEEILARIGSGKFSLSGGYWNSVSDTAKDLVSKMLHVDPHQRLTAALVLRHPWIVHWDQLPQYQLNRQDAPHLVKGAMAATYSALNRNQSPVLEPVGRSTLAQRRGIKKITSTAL
pIC50: −log10 of the molar value.
assay readout: pIC50

>>> print(df.to_string())
                                   compound                 assay_target  number
0  COc1ccc2[nH]c3c4[nH]c5ccc(OC)cc5c4c4c(c3c2c1)C(=O)NC4=O  RPS6KA3/RSK2 (Homo sapiens)    7.96

---

target: PDGFRA (Homo sapiens)
assay readout: IC50 (nM)

                                   compound  assay_readout  number
0  COc1ccc2[nH]c3c4[nH]c5ccc(OC)cc5c4c4c(c3c2c1)C(=O)NC4=O           IC50     710

---

molecular target: STK17B/DRAK2 (Homo sapiens); experiment: Eurofins kinase enzymatic radiometric assay; conditions: Km of ATP, 9-point curve in duplicate
pIC50: −log10 of the molar value.
assay readout: pIC50

                                   compound  assay_readout  number
0  COc1ccc2[nH]c3c4[nH]c5ccc(OC)cc5c4c4c(c3c2c1)C(=O)NC4=O          pIC50    8.26

---

molecular target: MAP4K4/HGK (Homo sapiens, UniProt O95819); experiment: Eurofins kinase enzymatic radiometric assay; settings: Km of ATP, 9-point curve in duplicate
Sequence (O95819 whole entry): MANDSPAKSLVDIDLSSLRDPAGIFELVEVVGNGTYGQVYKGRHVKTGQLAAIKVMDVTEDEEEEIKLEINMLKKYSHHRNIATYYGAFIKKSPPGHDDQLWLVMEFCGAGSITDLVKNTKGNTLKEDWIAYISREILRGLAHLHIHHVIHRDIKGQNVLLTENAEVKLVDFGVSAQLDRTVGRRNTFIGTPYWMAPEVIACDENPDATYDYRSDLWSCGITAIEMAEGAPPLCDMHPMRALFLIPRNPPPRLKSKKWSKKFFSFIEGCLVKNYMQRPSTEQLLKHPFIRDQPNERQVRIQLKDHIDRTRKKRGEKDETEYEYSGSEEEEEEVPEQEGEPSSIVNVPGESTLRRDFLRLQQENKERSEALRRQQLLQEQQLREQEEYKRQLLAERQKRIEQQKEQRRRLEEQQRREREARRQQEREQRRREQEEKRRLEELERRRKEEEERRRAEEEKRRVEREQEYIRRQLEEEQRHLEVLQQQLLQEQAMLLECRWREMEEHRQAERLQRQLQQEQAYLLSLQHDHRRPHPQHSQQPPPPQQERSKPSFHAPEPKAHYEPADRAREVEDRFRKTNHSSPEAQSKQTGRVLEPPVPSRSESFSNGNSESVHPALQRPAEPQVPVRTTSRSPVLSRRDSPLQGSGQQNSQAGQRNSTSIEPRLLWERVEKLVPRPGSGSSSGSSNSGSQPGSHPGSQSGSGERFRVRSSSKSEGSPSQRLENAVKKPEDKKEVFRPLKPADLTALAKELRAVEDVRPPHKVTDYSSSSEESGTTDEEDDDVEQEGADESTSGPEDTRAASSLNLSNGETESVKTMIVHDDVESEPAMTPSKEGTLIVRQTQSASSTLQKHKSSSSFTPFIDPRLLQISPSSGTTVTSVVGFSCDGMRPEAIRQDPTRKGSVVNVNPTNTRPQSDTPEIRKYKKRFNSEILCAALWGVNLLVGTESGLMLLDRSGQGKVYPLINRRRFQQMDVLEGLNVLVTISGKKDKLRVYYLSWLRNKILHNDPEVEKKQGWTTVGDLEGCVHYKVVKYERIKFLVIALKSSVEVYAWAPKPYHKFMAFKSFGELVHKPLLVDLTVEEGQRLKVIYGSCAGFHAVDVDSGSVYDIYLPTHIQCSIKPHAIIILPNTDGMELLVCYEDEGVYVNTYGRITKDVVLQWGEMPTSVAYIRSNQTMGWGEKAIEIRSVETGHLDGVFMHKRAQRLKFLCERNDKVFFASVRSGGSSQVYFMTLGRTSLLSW
pIC50: −log10 of the molar value.
assay readout: pIC50

>>> df
                                   compound                              assay_target  assay_readout  number
0  COc1ccc2[nH]c3c4[nH]c5ccc(OC)cc5c4c4c(c3c2c1)C(=O)NC4=O [GW296115]  MAP4K4/HGK (Homo sapiens, UniProt O95819)          pIC50    7.54

---

target: NUAK1/ARK5 (Homo sapiens); assay: Eurofins kinase enzymatic radiometric assay; conditions: Km of ATP, 9-point curve in duplicate
Sequence (O60285 whole entry): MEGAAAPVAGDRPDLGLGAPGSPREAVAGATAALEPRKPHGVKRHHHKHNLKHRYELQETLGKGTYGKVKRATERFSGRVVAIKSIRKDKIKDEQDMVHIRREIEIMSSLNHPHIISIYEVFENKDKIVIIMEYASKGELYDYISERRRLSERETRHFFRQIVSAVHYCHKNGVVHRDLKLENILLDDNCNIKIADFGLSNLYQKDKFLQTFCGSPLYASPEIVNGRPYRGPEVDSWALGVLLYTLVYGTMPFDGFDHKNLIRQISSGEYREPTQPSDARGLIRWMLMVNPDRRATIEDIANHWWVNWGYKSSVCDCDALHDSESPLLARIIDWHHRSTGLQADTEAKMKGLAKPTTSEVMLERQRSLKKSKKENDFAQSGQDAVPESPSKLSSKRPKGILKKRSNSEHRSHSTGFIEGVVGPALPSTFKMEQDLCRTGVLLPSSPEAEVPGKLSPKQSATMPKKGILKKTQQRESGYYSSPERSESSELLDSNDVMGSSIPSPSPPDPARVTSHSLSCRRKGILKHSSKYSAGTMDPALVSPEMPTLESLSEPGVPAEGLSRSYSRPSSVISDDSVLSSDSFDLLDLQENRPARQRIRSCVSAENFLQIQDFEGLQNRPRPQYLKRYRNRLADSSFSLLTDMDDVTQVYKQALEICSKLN
assay readout: IC50 (nM)

In [3]: df
Out[3]:
                                   compound  assay_readout  reading_unit  number
0  COc1ccc2[nH]c3c4[nH]c5ccc(OC)cc5c4c4c(c3c2c1)C(=O)NC4=O           IC50            nM      15

---

molecular target: TNIK (Homo sapiens)
pIC50: −log10 of the molar value.
assay readout: pIC50

>>> df
                                   compound  assay_readout  number
0  COc1ccc2[nH]c3c4[nH]c5ccc(OC)cc5c4c4c(c3c2c1)C(=O)NC4=O          pIC50    8.00

---

target: PRKG2/PKG2 (Homo sapiens, UniProt Q13237); test: Eurofins kinase enzymatic radiometric assay; conditions: Km of ATP, 9-point curve in duplicate
pIC50: −log10 of the molar value.
assay readout: pIC50

In [3]: df
Out[3]:
                                   molecule  number
0  COc1ccc2[nH]c3c4[nH]c5ccc(OC)cc5c4c4c(c3c2c1)C(=O)NC4=O [GW296115]    8.20
